Test: Cytotoxicity against mouse J774 cells assessed as decrease in cell viability after 24 hrs by resazurin assay
Type: cell-based
CC50 at 24 h values for the compounds below.
readout_kind: CC50 at 24 h

1. COC(=O)c1cc2nc(SCC(=O)Nc3ncc([N+](=O)[O-])s3)[nH]c2cc1Cl = 84.9 µM
2. COC(=O)c1cc2nc(SCC(=O)Nc3ccc(Cl)cc3)[nH]c2cc1Cl = 90.4 µM
3. COC(=O)c1cc2nc(SCC(=O)Nc3ccc(Cl)cn3)[nH]c2cc1Cl = 82.7 µM
4. COC(=O)c1cc2nc(SCC(=O)Nc3cnccn3)[nH]c2cc1Cl = 135 µM
5. CC1CS(=O)(=O)CCN1/N=C/c1ccc([N+](=O)[O-])o1 (stereo unspecified) = 132 µM
6. COC(=O)c1cc2nc(SCC(=O)Nc3nccs3)[nH]c2cc1Cl = 104 µM

The values you see were collected from ChEMBL document CHEMBL4431335.
